Molecular target: Human JAK2 (Homo sapiens (Human), UniProt O60674)
Sequence (O60674 whole entry): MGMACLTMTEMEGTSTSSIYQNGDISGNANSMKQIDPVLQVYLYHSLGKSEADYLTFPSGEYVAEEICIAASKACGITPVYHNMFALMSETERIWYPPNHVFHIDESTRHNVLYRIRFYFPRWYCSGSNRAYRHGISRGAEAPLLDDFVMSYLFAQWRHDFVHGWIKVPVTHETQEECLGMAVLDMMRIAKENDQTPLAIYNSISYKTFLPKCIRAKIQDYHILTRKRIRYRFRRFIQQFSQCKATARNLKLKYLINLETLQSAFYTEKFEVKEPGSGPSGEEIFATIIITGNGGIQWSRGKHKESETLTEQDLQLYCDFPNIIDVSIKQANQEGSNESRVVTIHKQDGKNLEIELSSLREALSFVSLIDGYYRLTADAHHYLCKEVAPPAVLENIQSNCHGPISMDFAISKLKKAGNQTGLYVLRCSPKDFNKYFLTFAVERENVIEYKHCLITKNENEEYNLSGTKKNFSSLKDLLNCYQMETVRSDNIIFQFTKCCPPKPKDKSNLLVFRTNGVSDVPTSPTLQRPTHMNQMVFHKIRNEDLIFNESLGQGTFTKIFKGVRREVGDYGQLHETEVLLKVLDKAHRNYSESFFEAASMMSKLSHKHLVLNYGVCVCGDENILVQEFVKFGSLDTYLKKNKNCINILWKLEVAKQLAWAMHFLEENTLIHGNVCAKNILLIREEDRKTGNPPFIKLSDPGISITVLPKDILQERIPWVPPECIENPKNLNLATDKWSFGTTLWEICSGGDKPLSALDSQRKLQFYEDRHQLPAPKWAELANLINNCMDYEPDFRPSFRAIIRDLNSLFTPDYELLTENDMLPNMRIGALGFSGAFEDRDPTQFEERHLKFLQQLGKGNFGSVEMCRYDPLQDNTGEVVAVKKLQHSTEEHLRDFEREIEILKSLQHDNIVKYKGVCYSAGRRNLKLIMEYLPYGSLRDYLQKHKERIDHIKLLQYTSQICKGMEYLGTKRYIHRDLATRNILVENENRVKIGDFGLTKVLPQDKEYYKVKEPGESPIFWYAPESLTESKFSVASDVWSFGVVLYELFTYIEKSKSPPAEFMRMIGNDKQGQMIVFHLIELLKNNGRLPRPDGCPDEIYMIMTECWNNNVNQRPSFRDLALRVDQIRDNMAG
Assay: In vitro kinase inhibition test, JAK2 (33P-ATP filter scintillation)
Assay type: biochemical
Conditions: compound at 1 uM; read-out: JAK2 kinase-phosphorylation inhibitory level (% inhibition)
quantity: inhibition at 1 µM (%)
Reply numerically in %, unit not repeated.

[
  {
    "smiles-data": "CN(c1ncnc2[nH]ccc12)[C@H]1CN(C(=O)NC2CCCCC2)CC12CC2",
    "experimental-target": "Human JAK2 (Homo sapiens (Human), UniProt O60674)",
    "quantity": "inhibition at 1 µM",
    "assay-result": -5
  },
  {
    "smiles-data": "CCCCN1C[C@H](N(C)c2ncnc3[nH]ccc23)C2(CC2)C1",
    "experimental-target": "Human JAK2 (Homo sapiens (Human), UniProt O60674)",
    "quantity": "inhibition at 1 µM",
    "assay-result": -14
  },
  {
    "smiles-data": "CN(c1ncnc2[nH]ccc12)[C@H]1CN(S(=O)(=O)c2ccccc2[N+](=O)[O-])CC12CC2",
    "experimental-target": "Human JAK2 (Homo sapiens (Human), UniProt O60674)",
    "quantity": "inhibition at 1 µM",
    "assay-result": 70
  }
]

API: the following record is the query input.
// query inhibition at 1 µM value for entry CCS(=O)(=O)N1C[C@H](N(C)c2ncnc3[nH]ccc23)C2(CC2)C1
84
